Target: N-terminally GST-tagged DLK (catalytic domain amino acid 1-520) (Homo sapiens)
Construct: N-terminally GST-tagged DLK (catalytic domain amino acid 1-520)
Sequence (Q12852 1-520): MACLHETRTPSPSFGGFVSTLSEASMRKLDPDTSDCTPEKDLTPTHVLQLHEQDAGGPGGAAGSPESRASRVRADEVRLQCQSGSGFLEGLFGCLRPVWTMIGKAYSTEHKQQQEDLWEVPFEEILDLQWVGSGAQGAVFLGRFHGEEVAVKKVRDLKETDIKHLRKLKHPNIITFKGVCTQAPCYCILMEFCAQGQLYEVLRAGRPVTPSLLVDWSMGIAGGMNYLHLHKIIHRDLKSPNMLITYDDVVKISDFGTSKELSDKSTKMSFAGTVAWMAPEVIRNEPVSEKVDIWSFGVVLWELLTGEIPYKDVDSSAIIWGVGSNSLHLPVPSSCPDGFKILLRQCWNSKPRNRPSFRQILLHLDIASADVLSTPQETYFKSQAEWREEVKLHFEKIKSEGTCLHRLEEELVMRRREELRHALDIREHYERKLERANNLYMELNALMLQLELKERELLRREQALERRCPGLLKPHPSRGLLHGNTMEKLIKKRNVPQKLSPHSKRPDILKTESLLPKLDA
Assay: DLK TR-FRET inhibition assay
Conditions: 5 nM GST-DLK, 40 nM HIS-MKK4 K131M substrate, 30 μM ATP, 60 minutes at ambient temperature
test-readout: Ki (nM)

- Nc1ncc(-c2cc([C@H]3[C@@H]4C[C@@H](N5CCOCC5)C[C@@H]43)n(CC3CC3)n2)cc1C(F)(F)F: 1.1

I: Nc1ncc(-c2cc([C@H]3[C@@H]4C[C@H](N5CCOCC5)C[C@@H]43)nn2C2CCC2)cc1OC(F)F
II: CC(C)n1nc(-c2cnc(N)c(OC(F)F)c2)cc1[C@H]1[C@@H]2C[C@@H](N3CC(F)(F)C3)C[C@@H]21
input: Smaller Ki value? Options are I and II Kindly give the label for the entry you pick.
output: II
(II: 4.53 nM, I: 258 nM)
